- assay_protocol: A CellTox Green Cytotoxicity Assay to monitor cytotoxicity in HEK293 cells - 16 hour (AID 1224888); note: nearly all actives have a fitted effect of over 35% in size
- measurement_conditions: CellTox Green fluorescence; series mostly up to 76.8 µM
Results filed as inconclusive are left out. Calls of active or inactive are those of the source. Calls come from the whole dose curve; as a rule, active = well fitted activation curve with a large enough effect in the repeat runs; inconclusive = weak or mixed curves; inactive = flat fitted curve, though single readings scatter.
Reply using exactly one outcome from active, inactive

Q: Write down the call the test reported for this molecule. Item: CC(C)=CCNc1ncnc2c1ncn2[C@@H]1O[C@H](CO)[C@@H](O)[C@H]1O
Ans: inactive

Q: Would you mind doing CCC(COC(=O)CCS)(COC(=O)CCS)COC(=O)CCS as well?
Ans: inactive

Q: Would you mind doing CCN(CC)c1ccc2c(-c3ccc(S(=O)(=O)O)cc3S(=O)(=O)[O-])c3ccc(=[N+](CC)CC)cc-3oc2c1 as well?
Ans: inactive

Q: Would you mind doing O=S(=O)(O)c1ccc(Nc2nc(Nc3ccc(/C=C/c4ccc(Nc5nc(Nc6ccc(S(=O)(=O)O)cc6)nc(N(CCO)CCO)n5)cc4S(=O)(=O)O)c(S(=O)(=O)O)c3)nc(N(CCO)CCO)n2)cc1 as well?
Ans: inactive

Q: Would you mind doing CCCCCCCCCCCCCCCC[N+](C)(C)CC as well?
Ans: active

Q: Would you mind doing O=S(=O)(O)c1ccc(N=Nc2c(O)ccc3ccccc23)cc1 as well?
Ans: inactive

Q: Would you mind doing Nc1nc(-c2ccccc2)cs1 as well?
Ans: inactive

Q: Would you mind doing Cc1ccc(C(C)C)cc2c(C)ccc1-2 as well?
Ans: inactive

Q: Would you mind doing O=C(O)c1cc(N=Nc2ccc([N+](=O)[O-])cc2)ccc1O as well?
Ans: inactive

Q: Would you mind doing CN1CCCCC1CCN1c2ccccc2Sc2ccc(S(C)=O)cc21 (stereo not drawn) as well?
Ans: inactive

Q: Would you mind doing Nc1nc2c(ncn2COCCO)c(=O)[nH]1 as well?
Ans: inactive

Q: Would you mind doing O=C(Oc1ccccc1)Oc1ccccc1 as well?
Ans: inactive

Q: Would you mind doing CCCCCCC1CCCC(=O)O1 (stereo not drawn) as well?
Ans: inactive

Q: Would you mind doing CCOC(=O)c1ccc(C2CCC(NC[C@H](O)COc3ccc(O)c(NS(C)(=O)=O)c3)CC2)cc1 (stereo partly drawn) as well?
Ans: inactive

Q: Would you mind doing O=c1[nH]c2ccccc2n1CCCN1CCN(C(c2ccccc2)c2ccccc2)CC1 as well?
Ans: inactive

Q: Would you mind doing CC(C)(C)NSc1nc2ccccc2s1 as well?
Ans: inactive

Q: Would you mind doing Cc1cc(C(C)(C)C)c(O)c(C)c1Cn1c(=O)n(Cc2c(C)cc(C(C)(C)C)c(O)c2C)c(=O)n(Cc2c(C)cc(C(C)(C)C)c(O)c2C)c1=O as well?
Ans: inactive

Q: Would you mind doing Cc1ccc(C)cc1 as well?
Ans: inactive

Q: Would you mind doing O=c1c(O)c(-c2ccc(O)cc2O)oc2cc(O)cc(O)c12 as well?
Ans: inactive

Q: Would you mind doing O=C1C(c2[nH]c3ccc(S(=O)(=O)O)cc3c2O)=Nc2ccc(S(=O)(=O)O)cc21 as well?
Ans: inactive

Q: Would you mind doing O=C(O)c1ccc2cc(C(=O)O)ccc2c1 as well?
Ans: inactive

Q: Would you mind doing OCC(F)(F)F as well?
Ans: inactive

Q: Would you mind doing CCCCCCCCCCCCOC(=O)c1ccc(O)cc1 as well?
Ans: inactive
